# target-desc: human active recombinant p38α-6His tagged (Homo sapiens, UniProt Q16539)
# Construct: 6His
# Sequence (Q16539 whole entry): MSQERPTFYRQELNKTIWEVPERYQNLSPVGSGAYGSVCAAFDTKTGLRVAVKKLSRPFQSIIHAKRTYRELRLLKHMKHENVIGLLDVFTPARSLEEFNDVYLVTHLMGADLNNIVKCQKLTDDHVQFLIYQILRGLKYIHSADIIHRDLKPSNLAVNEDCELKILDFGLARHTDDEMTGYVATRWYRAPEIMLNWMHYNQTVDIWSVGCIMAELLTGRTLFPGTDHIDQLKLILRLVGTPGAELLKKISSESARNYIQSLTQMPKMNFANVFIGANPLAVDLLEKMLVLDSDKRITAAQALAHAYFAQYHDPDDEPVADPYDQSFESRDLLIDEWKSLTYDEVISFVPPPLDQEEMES
# test-details: p38 Alpha Enzyme Assay (AlphaScreen, biotinylated-ATF2 substrate)
# Format: biochemical
# measurement-parameters: pre-incubated 4 hours at 37° C., reaction initiated with ATP; 0.5 nM enzyme; read-out: p38 pIC50 (converted)
assay-endpoint: IC50 (nM)

Worked cases, answers included:
> print(dat)
                                   compound  assay.endpoint  units  assay.value
1  Cc1c(F)cc(C(=O)NC2CC2)cc1-c1ccc2c(=O)n(CC3CC3)cc(CN3CC[C@@H](N)C3)c2c1            IC50     nM         1.58
2  Cc1c(F)cc(C(=O)NC2CC2)cc1-c1ccc2c(=O)n(CC3CC3)cc(CN3CCNCC3)c2c1            IC50     nM       0.0631
3  Cc1ccc(C(=O)NC2CC2)cc1-c1ccc2c(=O)n(Cc3ccccc3)cc(CN3CCCC3)c2c1            IC50     nM           10
4  Cc1ccc(C(=O)NC2CC2)cc1-c1ccc2c(=O)n(Cc3cccc(OCCCN(C)C)c3)ccc2c1            IC50     nM            2

(1) Cc1c(F)cc(C(=O)NC2CC2)cc1-c1ccc2c(=O)n(CC3CC3)cc(CN3CCNC(CO)CC3)c2c1 (stereo not drawn)
(2) Cc1ccc(C(=O)NC2CC2)cc1-c1ccc2c(=O)n(Cc3ccccc3)cc(CCCN3CCCC3)c2c1
(3) Cc1ccc(C(=O)NC2CC2)cc1-c1ccc2c(=O)n(Cc3ccc(C(=O)N(C)CCN(C)C)cc3)ccc2c1
Sort the 3 compounds by IC50; largest first, smallest last. Your reply should list the labels following the order given in the request.
3, 2, 1
(3: 2 nM, 2: 1 nM, 1: 0.158 nM)

* * *

# target-desc: human active recombinant p38α-6His tagged (Homo sapiens, UniProt Q16539)
# Construct: 6His
# test-details: p38 Alpha Enzyme Assay (AlphaScreen, biotinylated-ATF2 substrate)
# Type: biochemical
# measurement-parameters: pre-incubated 4 hours at 37° C., reaction initiated with ATP; 0.5 nM enzyme; read-out: p38 pIC50 (converted)
# Method: The ability of the compounds of formula (I) to inhibit p38 kinase may be determined using the following biological assay: Enzyme assays were performed in polypropylene 96 well plates. […] Total, uninhibited activity was determined from assays performed in each assay plate. […] Data were expressed as percent inhibition of total activity using equation 1. […]
assay-endpoint: IC50 (nM)

> print(dat)
                              smiles.record                               target.desc  assay.endpoint  units  assay.value
1  CNCCN(C)C(=O)c1ccc(Cn2ccc3cc(-c4cc(C(=O)NC5CC5)ccc4C)ccc3c2=O)cc1  human active recombinant p38α-6His tagged (Homo sapiens, UniProt Q16539)            IC50     nM            2
2  Cc1c(F)cc(C(=O)NC2CC2)cc1-c1ccc2c(=O)n(CC3CC3)cc(CN3CCCNCC3)c2c1  human active recombinant p38α-6His tagged (Homo sapiens, UniProt Q16539)            IC50     nM          0.1
3  Cc1ccc(C(=O)NC2CC2)cc1-c1ccc2c(=O)n(Cc3ccc(CN(C)C)cc3)ccc2c1  human active recombinant p38α-6His tagged (Homo sapiens, UniProt Q16539)            IC50     nM         2.51

(P) CNCCOc1ccc(Cn2ccc3cc(-c4cc(C(=O)NC5CC5)ccc4C)ccc3c2=O)cc1
(Q) Cc1c(F)cc(C(=O)NC2CC2)cc1-c1ccc2c(=O)n(CC3CC3)cc(CN3CCN(C)[C@@H](CO)C3)c2c1
(R) Cc1ccc(C(=O)NC2CC2)cc1-c1ccc2c(=O)n(Cc3ccccc3CN(C)C)ccc2c1
List the 3 entries from lowest IC50 to highest IC50 value. Your reply should list the labels following the order given in the request.
Q, P, R

* * *

# target-desc: human active recombinant p38α-6His tagged (Homo sapiens)
# Construct: 6His
# test-details: p38 Alpha Enzyme Assay (AlphaScreen, biotinylated-ATF2 substrate)
# Type: biochemical
# measurement-parameters: pre-incubated 4 hours at 37° C., reaction initiated with ATP; 0.5 nM enzyme; read-out: p38 pIC50 (converted)
assay-endpoint: IC50 (nM)

> print(dat)
                              smiles.record                               target.desc  assay.endpoint  assay.value
1  Cc1c(F)cc(C(=O)NC2CC2)cc1-c1ccc2c(=O)n(CC3CC3)cc(CN[C@@H]3CCNC3)c2c1  human active recombinant p38α-6His tagged (Homo sapiens)            IC50            1

(1) Cc1c(F)cc(C(=O)NC2CC2)cc1-c1ccc2c(=O)n(CC3CC3)cc(CN3C[C@@H](N)C[C@@H]3CO)c2c1
(2) Cc1ccc(C(=O)NC2CC2)cc1-c1ccc2c(=O)n(CCCN3CCCC3)ccc2c1
(3) Cc1ccc(C(=O)NC2CC2)cc1-c1ccc2c(=O)n(Cc3ccccc3)ccc2c1
List the 3 entries from lowest IC50 to highest IC50 value. Your reply should list the labels following the order given in the request.
1, 3, 2
(1: 0.398 nM, 3: 0.794 nM, 2: 316 nM)

* * *

# target-desc: human active recombinant p38α-6His tagged (Homo sapiens, UniProt Q16539)
# Construct: 6His
# test-details: p38 Alpha Enzyme Assay (AlphaScreen, biotinylated-ATF2 substrate)
# Format: biochemical
# measurement-parameters: pre-incubated 4 hours at 37° C., reaction initiated with ATP; 0.5 nM enzyme; read-out: p38 pIC50 (converted)
assay-endpoint: IC50 (nM)

Worked cases, answers included:
> print(dat)
                              smiles.record                               target.desc  units  assay.value
1  Cc1c(F)cc(C(=O)NC2CC2)cc1-c1ccc2c(=O)n(CC3CC3)cc(CN3CCC(NC(C)C)CC3)c2c1  human active recombinant p38α-6His tagged (Homo sapiens, UniProt Q16539)     nM          0.2
2  Cc1ccc(C(=O)NC2CC2)cc1-c1ccc2c(=O)n(Cc3ccccc3)cc(CCCN(C)C)c2c1  human active recombinant p38α-6His tagged (Homo sapiens, UniProt Q16539)     nM        0.398
3  Cc1ccc(C(=O)NC2CC2)cc1-c1ccc2c(=O)n(Cc3cccc(OCCN4CCCC4)c3)ccc2c1  human active recombinant p38α-6His tagged (Homo sapiens, UniProt Q16539)     nM            2
4  CNCCN(C)Cc1cn(CC2CC2)c(=O)c2ccc(-c3cc(C(=O)NC4CC4)ccc3C)cc12  human active recombinant p38α-6His tagged (Homo sapiens, UniProt Q16539)     nM         3.16
5  Cc1ccc(C(=O)NC2CC2)cc1-c1ccc2c(=O)n(Cc3ccc(C(=O)NCCCN4CCCC4)cc3)ccc2c1  human active recombinant p38α-6His tagged (Homo sapiens, UniProt Q16539)     nM        0.631

(I) Cc1ccc(C(=O)NC2CC2)cc1-c1ccc2c(=O)n(Cc3ccccn3)ccc2c1
(II) CONC(=O)c1ccc(C)c(-c2ccc3c(=O)n(Cc4ccc(C5=CCNCC5)cc4)ccc3c2)c1
Please let me know which one, I or II , has a lower measured IC50 value. Return value: the label identifying the chosen record.
II

* * *

# target-desc: human active recombinant p38α-6His tagged (Homo sapiens, UniProt Q16539)
# Construct: 6His
# test-details: p38 Alpha Enzyme Assay (AlphaScreen, biotinylated-ATF2 substrate)
# Assay type: biochemical
# measurement-parameters: pre-incubated 4 hours at 37° C., reaction initiated with ATP; 0.5 nM enzyme; read-out: p38 pIC50 (converted)
assay-endpoint: IC50 (nM)

Worked cases, answers included:
> print(dat)
                              smiles.record  assay.endpoint  units  assay.value
1  Cc1ccc(C(=O)NC2CC2)cc1-c1ccc2c(=O)n(CC3CC3)cc(CN(C)CCN(C)C)c2c1            IC50     nM         3.98
2  Cc1ccc(C(=O)NC2CC2)cc1-c1ccc2c(=O)n(Cc3ccncc3)cc(C(=O)N3CCC(N4CCCC4)CC3)c2c1            IC50     nM         25.1
3  CN[C@@H]1CCN(Cc2cn(CC3CC3)c(=O)c3ccc(-c4cc(C(=O)NC5CC5)cc(F)c4C)cc23)C1            IC50     nM        0.316

(A) Cc1c(F)cc(C(=O)NC2CC2)cc1-c1ccc2c(=O)n(CC3CC3)cc(CN3CCC[C@@H]3CN)c2c1
(B) Cc1ccc(C(=O)NC2CC2)cc1-c1ccc2c(=O)n(CC3CC3)cc(C(=O)NCCCN3CCCC3)c2c1
(C) Cc1c(F)cc(C(=O)NC2CC2)cc1-c1ccc2c(=O)n(CC3CC3)cc(CN3CCC[C@H]3CN)c2c1
(D) Cc1ccc(C(=O)NC2CC2)cc1-c1ccc2c(=O)n(Cc3ccc(C(=O)N(C)CCCN(C)C)cc3)ccc2c1
Sort the 4 molecules by IC50; largest first, smallest last. Your reply should list the labels following the order given in the request.
B, D, A, C
